Target: mSTING (Mus musculus, UniProt Q3TBT3)
Sequence (Q3TBT3 1-378): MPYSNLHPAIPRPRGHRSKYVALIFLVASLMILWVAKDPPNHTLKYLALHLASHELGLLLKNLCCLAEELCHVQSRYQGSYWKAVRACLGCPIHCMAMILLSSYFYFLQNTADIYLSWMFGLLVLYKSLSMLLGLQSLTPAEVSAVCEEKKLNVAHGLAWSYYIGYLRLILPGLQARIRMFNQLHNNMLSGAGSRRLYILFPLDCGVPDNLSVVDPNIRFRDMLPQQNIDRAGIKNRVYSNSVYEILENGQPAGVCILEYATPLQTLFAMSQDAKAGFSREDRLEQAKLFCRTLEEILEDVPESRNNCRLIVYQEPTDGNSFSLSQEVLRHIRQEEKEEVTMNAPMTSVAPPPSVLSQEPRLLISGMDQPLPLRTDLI
Test: THP1-Dual KI-mSTING reporter assay
Format: cell-based
Set-up: host or cells: THP1-Dual KI-mSTING (from THP1-Dual KO-STING)
Details: THP1-Dual KI-mSTING cells, 24 hours; read-out: Reporter assay EC50 (nM) THP-1 mSTING
measured_endpoint: EC50

compound=CCn1nc(C)cc1C(=O)Nc1nc2cc(C(N)=O)cc(OC)c2n1C/C=C/Cn1c(NC(=O)c2cc(C)nn2CC)nc2cc(C(N)=O)cc(OCCCN3CCC(c4nnc5n4CCNC5)CC3)c21 measured_endpoint=EC50 recorded_result="> 150 nM"
compound=CCn1nc(C)cc1C(=O)Nc1nc2cc(C(N)=O)cc(OC)c2n1C/C=C/Cn1c(NC(=O)C23CCC(C)(CC2)CC3)nc2cc(C(N)=O)cc(OCCCN3CC4(CNCCO4)C3)c21 measured_endpoint=EC50 recorded_result="> 150 nM"
compound=CCc1cc(C(=O)Nc2nc3cc(C(N)=O)cc(OCCCN4CC5(CNCCO5)C4)c3n2C/C=C/Cn2c(NC(=O)c3cc(C)nn3CC)nc3cc(C(N)=O)cc(OC)c32)n(C)n1 measured_endpoint=EC50 recorded_result="> 150 nM"
compound=CCn1nc(C)cc1C(=O)Nc1nc2cc(C(N)=O)cc(OC)c2n1C/C=C/Cn1c(NC(=O)c2cc(C)nn2CC)nc2cc(C(N)=O)cc(OCCCN3CC4(C3)CN(C(=O)[C@@H](N)CC(C)C)CCO4)c21 measured_endpoint=EC50 recorded_result="≤ 50 nM"
compound=CCn1nc(C)cc1C(=O)Nc1nc2cc(C(N)=O)cc3c2n1C/C=C/Cn1c(NC(=O)c2cc(C)nn2CC)nc2cc(C(N)=O)cc(c21)OCC1(CNC1)CO3 measured_endpoint=EC50 recorded_result="> 150 nM"
compound="CCc1nc(C)oc1C(=O)Nc1nc2cc(C(N)=O)cnc2n1C/C=C/Cn1c(NC(=O)c2oc(C)nc2CC)nc2cc(C(N)=O)cc(OCCCO)c21 [Reference Compd B, reference compound]" measured_endpoint=EC50 recorded_result="≤ 50 nM"
compound=CCc1nc(C)sc1C(=O)Nc1nc2cc(C(N)=O)cc(OC)c2n1C/C=C/Cn1c(NC(=O)c2sc(C)nc2CC)nc2cc(C(N)=O)cc(OCCCN3CCC(c4nnc5n4CCNC5)CC3)c21 measured_endpoint=EC50 recorded_result="≤ 50 nM"
compound=CCn1nc(C)cc1C(=O)Nc1nc2cc(C(N)=O)cc(OC)c2n1C/C=C/Cn1c(NC(=O)c2cn(C)nc2CN)nc2cc(C(N)=O)cc(OCCCN3CC4(CCCCO4)C3)c21 measured_endpoint=EC50 recorded_result="> 150 nM"
compound=CCc1nc(C)oc1C(=O)Nc1nc2cc(C(N)=O)cc(OCCCN3CC4(CNCCO4)C3)c2n1C/C=C/Cn1c(NC(=O)c2cc(C)nn2CC)nc2cc(C(N)=O)cc(OC)c21 measured_endpoint=EC50 recorded_result="≤ 50 nM"
compound=CCn1nc(C)cc1C(=O)Nc1nc2cc(C(N)=O)cc(OC)c2n1C/C=C/Cn1c(NC(=O)Cc2cc(C)n(C)n2)nc2cc(C(N)=O)cc(OCCCN3CC4(CNCCO4)C3)c21 measured_endpoint=EC50 recorded_result="> 150 nM"
compound=CCn1nc(C)cc1C(=O)Nc1nc2cc(C(N)=O)cc(OC)c2n1C/C=C/Cn1c(NC(=O)Cc2cnc(C)o2)nc2cc(C(N)=O)cc(OCCCN3CC4(CNCCO4)C3)c21 measured_endpoint=EC50 recorded_result="> 150 nM"
compound=CCc1nc(C)oc1C(=O)Nc1nc2cc(C(N)=O)cc3c2n1C/C=C/Cn1c(NC(=O)c2cc(C)nn2CC)nc2cc(C(N)=O)cc(c21)OCC1(CNC1)CO3 measured_endpoint=EC50 recorded_result="50 to 150 nM"
compound=CCn1nc(C)cc1C(=O)Nc1nc2cc(C(N)=O)cc(OC)c2n1C/C=C/Cn1c(NC(=O)Cc2cc(C)nn2C)nc2cc(C(N)=O)cc(OCCCN3CC4(CNCCO4)C3)c21 measured_endpoint=EC50 recorded_result="> 150 nM"
compound=COc1cc(C(N)=O)cc2nc(NC(=O)c3oc(C)nc3C)n(C/C=C/Cn3c(NC(=O)c4oc(C)nc4C)nc4cc(C(N)=O)cc(OCCCN5CCC(c6nnc7n6CCNC7)CC5)c43)c12 measured_endpoint=EC50 recorded_result="> 150 nM"
compound=CCc1nc(C)oc1C(=O)Nc1nc2cc(C(N)=O)cc(OCCCN3CC4(C3)CN(C(=O)[C@H](CC(C)C)NC)CCO4)c2n1C/C=C/Cn1c(NC(=O)c2cc(C)nn2CC)nc2cc(C(N)=O)cc(OC)c21 measured_endpoint=EC50 recorded_result="≤ 50 nM"
compound=CCc1nc(C)oc1C(=O)Nc1nc2cc(C(N)=O)cc(OCCCN3CC4(C3)CN(C(=O)[C@@H](N)CC(C)C)CCO4)c2n1C/C=C/Cn1c(NC(=O)c2cc(C)nn2CC)nc2cc(C(N)=O)cc(OC)c21 measured_endpoint=EC50 recorded_result="≤ 50 nM"
compound=CCc1nc(C)oc1C(=O)Nc1nc2cc(C(N)=O)cc(OCCCN3CC4(CNCCO4)C3)c2n1C/C=C/Cn1c(NC(=O)c2cc(C)nn2CC)nc2cc(C(N)=O)cnc21 measured_endpoint=EC50 recorded_result="50 to 150 nM"
compound=CCn1nc(C)cc1C(=O)Nc1nc2cc(C(N)=O)cc(OC)c2n1C/C=C/Cn1c(NC(=O)c2oc(C)nc2C)nc2cc(C(N)=O)cc(OCCCN3CC4(CNCCO4)C3)c21 measured_endpoint=EC50 recorded_result="≤ 50 nM"
compound=CCn1nc(C)cc1C(=O)Nc1nc2cc(C(N)=O)ccc2n1C/C=C/Cn1c(NC(=O)c2cc(C)nn2CC)nc2cc(C(N)=O)cc(OCCCN3CC4(C3)CN(C(=O)[C@H](CC(C)C)NC(=O)CCCCCO/N=C(\C)c3ccc(C[C@H](N)C(=O)O)cc3)CCO4)c21 measured_endpoint=EC50 recorded_result="> 150 nM"
compound=CCn1nc(C)cc1C(=O)Nc1nc2cc(C(N)=O)cc(OC)c2n1C/C=C/Cn1c(NC(=O)c2ccnn2CC)nc2cc(C(N)=O)cc(OCCCN3CC4(CNCCO4)C3)c21 measured_endpoint=EC50 recorded_result="≤ 50 nM"
